- PROTOCOL NOTES: In vitro Cytotoxic concentration in mock-infected A3.01 cells - 100% toxicity.
- Type: functional, Homo sapiens
Assignment: determine reported CC100 for the given compounds.
Quick note: give the figure in µM, leave out the unit.

State its CC100 for this compound: [N-]=[N+]=N[C@]1(CO)O[C@@H](N2C=NC3C(=O)N=C(N)N=C32)C[C@@H]1O (stereo not given in full)
1.9

Specify CC100 for Cc1cn(C2C=CC(CO)(N=[N+]=[N-])O2)c(=O)[nH]c1=O (stereo not given) and stop.
7.4

Identify the reported CC100 for the following entry. [N-]=[N+]=N[C@]1(CO)O[C@@H](n2ccc(N)nc2=O)C[C@@H]1O
1.9

Give the value of CC100 reported for the following: [N-]=[N+]=N[C@]1(CO)O[C@@H](N2C=NC3C(=O)N=CN=C32)C[C@@H]1O (stereo not given in full)
200

Give recorded CC100. Cc1cn([C@H]2CC[C@@](CO)(N=[N+]=[N-])O2)c(=O)[nH]c1=O
33.3

For the compound Cc1cn([C@H]2CC[C@](CO)(N=[N+]=[N-])O2)c(=O)[nH]c1=O , give its measured CC100 value.
200

Origin of values: ChEMBL document CHEMBL1125438
